Measured Ki on D(1B) dopamine receptor (Homo sapiens) follows.
Sequence (P21918 whole entry): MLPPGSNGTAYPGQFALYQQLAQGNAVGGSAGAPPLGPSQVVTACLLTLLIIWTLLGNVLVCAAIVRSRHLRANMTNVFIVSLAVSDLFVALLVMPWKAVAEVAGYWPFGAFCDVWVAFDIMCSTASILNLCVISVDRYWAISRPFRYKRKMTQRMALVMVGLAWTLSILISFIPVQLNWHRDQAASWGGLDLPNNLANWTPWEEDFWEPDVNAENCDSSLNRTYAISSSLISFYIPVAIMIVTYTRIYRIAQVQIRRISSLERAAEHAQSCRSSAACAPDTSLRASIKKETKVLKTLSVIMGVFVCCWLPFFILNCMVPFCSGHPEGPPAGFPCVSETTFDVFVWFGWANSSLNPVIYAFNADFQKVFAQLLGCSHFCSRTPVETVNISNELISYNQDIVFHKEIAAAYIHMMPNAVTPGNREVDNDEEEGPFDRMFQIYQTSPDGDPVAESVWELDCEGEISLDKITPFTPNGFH

| compound | measured_target | Ki / µM |
| --- | --- | --- |
| COc1cc2c(cc1O)C(c1c(Cl)cccc1Cl)CN(C)CC2 (stereo unspecified) | D(1B) dopamine receptor (Homo sapiens) | 0.0491 |
| COc1cc2c(cc1O)C(c1ccccc1Br)CN(C)CC2 (stereo unspecified) | D(1B) dopamine receptor (Homo sapiens) | 0.047 |
| COc1cc2c(cc1O)C(c1c(Cl)cccc1Cl)CNCC2 (stereo unspecified) | D(1B) dopamine receptor (Homo sapiens) | 0.0254 |
| CN1CCc2cc(O)c(O)cc2C(c2ccccc2Br)C1 (stereo unspecified) | D(1B) dopamine receptor (Homo sapiens) | 0.223 |
| C=CCN1CCc2cc(OC)c(O)cc2C(c2ccccc2Br)C1 (stereo unspecified) | D(1B) dopamine receptor (Homo sapiens) | 0.501 |
| COc1cc2c(cc1O)C(c1ccccc1Cl)CN(C)CC2 (stereo unspecified) | D(1B) dopamine receptor (Homo sapiens) | 0.0464 |

====

# measured_target: D(1A) dopamine receptor (Homo sapiens)
# Sequence (P21728 whole entry): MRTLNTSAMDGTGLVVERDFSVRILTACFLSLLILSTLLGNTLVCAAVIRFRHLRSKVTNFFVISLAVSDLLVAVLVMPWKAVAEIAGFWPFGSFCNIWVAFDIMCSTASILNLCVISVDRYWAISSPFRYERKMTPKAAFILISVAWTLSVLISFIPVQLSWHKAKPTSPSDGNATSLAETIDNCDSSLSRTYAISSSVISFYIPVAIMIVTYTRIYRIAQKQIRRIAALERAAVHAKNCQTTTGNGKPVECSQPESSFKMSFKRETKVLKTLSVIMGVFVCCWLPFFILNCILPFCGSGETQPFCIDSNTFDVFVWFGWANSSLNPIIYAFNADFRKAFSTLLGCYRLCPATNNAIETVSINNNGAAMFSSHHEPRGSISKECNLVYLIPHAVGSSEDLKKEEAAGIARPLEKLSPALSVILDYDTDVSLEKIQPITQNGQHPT
# assay_notes: Displacement of [3H]SCH23390 from dopamine D1 receptor (unknown origin)
Entries are sorted into classes by Ki as follows: lower level: < 50 nM; middle level: ≥ 50 nM and < 100 nM; upper level: ≥ 100 nM

| compound | category |
| --- | --- |
| COc1cc2c(cc1O)C(c1ccccc1Cl)CN(C)CC2 (stereo not drawn) | lower level |
| C=CCN1CCc2cc(O)c(O)cc2C(c2ccccc2Br)C1 (stereo not drawn) | upper level |
| COc1cc2c(cc1O)C(c1ccccc1Cl)CNCC2 (stereo not drawn) | upper level |
| COc1cc2c(cc1O)C(c1ccccc1Br)CN(C)CC2 (stereo not drawn) | lower level |
| COc1cc2c(cc1O)C(c1ccccc1Br)CNCC2 (stereo not drawn) | middle level |
| CN1CCc2cc(O)c(O)cc2C(c2ccccc2Br)C1 (stereo not drawn) | middle level |
| COc1cc2c(cc1O)C(c1c(Cl)cccc1Cl)CNCC2 (stereo not drawn) | middle level |
| C=CCN1CCc2cc(OC)c(O)cc2C(c2c(Cl)cccc2Cl)C1 (stereo not drawn) | upper level |
| C=CCN1CCc2cc(OC)c(O)cc2C(c2ccccc2Cl)C1 (stereo not drawn) | lower level |
| C=CCN1CCc2cc(OC)c(O)cc2C(c2ccccc2Br)C1 (stereo not drawn) | lower level |
| COc1cc2c(cc1O)C(c1ccccc1)CNCC2 (stereo not drawn) | upper level |
| COc1cc2c(cc1O)C(c1c(Cl)cccc1Cl)CN(C)CC2 (stereo not drawn) | upper level |
| Oc1cc2c(cc1O)C(c1ccccc1Br)CNCC2 (stereo not drawn) | lower level |

====

Let's look at some molecules and their measured Ratio Ki.
# Species: Homo sapiens
# assay_notes: Selectivity index, ratio of Ki for displacement of [3H]SCH23390 from dopamine D5 receptor (unknown origin) to Ki for displacement of [3H]SCH23390 from dopamine D1 receptor (unknown origin)

| molecule | Ratio Ki |
| --- | --- |
| COc1cc2c(cc1O)C(c1ccccc1Cl)CNCC2 (configuration not stated) | < 3 |
| CN1CCc2cc(O)c(O)cc2C(c2ccccc2Br)C1 (configuration not stated) | 3 to 4 |
| COc1cc2c(cc1O)C(c1ccccc1Br)CN(C)CC2 (configuration not stated) | 4 |
| COc1cc2c(cc1O)C(c1ccccc1Br)CNCC2 (configuration not stated) | < 3 |
| COc1cc2c(cc1O)C(c1ccccc1)CNCC2 (configuration not stated) | < 3 |
| C=CCN1CCc2cc(O)c(O)cc2C(c2ccccc2Br)C1 (configuration not stated) | 3 to 4 |
| COc1cc2c(cc1O)C(c1ccccc1Cl)CN(C)CC2 (configuration not stated) | 3 |

====

# measured_target: D(2) dopamine receptor (Homo sapiens, UniProt P14416)
# Sequence (P14416 whole entry): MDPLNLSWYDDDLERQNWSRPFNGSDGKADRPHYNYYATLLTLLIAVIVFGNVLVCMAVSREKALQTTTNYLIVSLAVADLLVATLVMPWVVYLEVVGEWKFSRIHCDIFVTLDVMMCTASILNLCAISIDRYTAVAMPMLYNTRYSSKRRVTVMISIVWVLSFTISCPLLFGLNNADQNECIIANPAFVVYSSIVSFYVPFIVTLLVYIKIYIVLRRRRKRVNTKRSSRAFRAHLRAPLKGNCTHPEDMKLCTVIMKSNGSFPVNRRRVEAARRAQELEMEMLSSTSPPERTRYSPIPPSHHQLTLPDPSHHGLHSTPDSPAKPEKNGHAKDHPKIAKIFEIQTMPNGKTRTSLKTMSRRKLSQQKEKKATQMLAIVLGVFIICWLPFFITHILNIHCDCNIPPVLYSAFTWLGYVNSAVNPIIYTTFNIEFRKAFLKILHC
# assay_notes: Displacement of [3H]N-methylspiperone from dopamine D2 receptor (unknown origin)

| molecule | Ki |
| --- | --- |
| C=CCN1CCc2cc(OC)c(O)cc2C(c2c(Cl)cccc2Cl)C1 (stereo unspecified) | 1.51 µM |

====

# measured_target: D(2) dopamine receptor (Homo sapiens, UniProt P14416)
# assay_notes: Displacement of [3H]N-methylspiperone from dopamine D2 receptor (unknown origin) at 10 uM relative to control
parameter: inhibition

| molecule | reading |
| --- | --- |
| CN1CCc2cc(O)c(O)cc2C(c2ccccc2Br)C1 (configuration not stated) | < 50% |
| COc1cc2c(cc1O)C(c1ccccc1Br)CN(C)CC2 (configuration not stated) | < 50% |
| Oc1cc2c(cc1O)C(c1ccccc1Br)CNCC2 (configuration not stated) | < 50% |
| COc1cc2c(cc1O)C(c1ccccc1Br)CNCC2 (configuration not stated) | < 50% |
| C=CCN1CCc2cc(OC)c(O)cc2C(c2ccccc2Cl)C1 (configuration not stated) | < 50% |
| C=CCN1CCc2cc(O)c(O)cc2C(c2ccccc2Br)C1 (configuration not stated) | < 50% |
| COc1cc2c(cc1O)C(c1c(Cl)cccc1Cl)CNCC2 (configuration not stated) | < 50% |
| COc1cc2c(cc1O)C(c1ccccc1Cl)CN(C)CC2 (configuration not stated) | < 50% |
| COc1cc2c(cc1O)C(c1ccccc1)CNCC2 (configuration not stated) | < 50% |
| C=CCN1CCc2cc(OC)c(O)cc2C(c2ccccc2Br)C1 (configuration not stated) | < 50% |
| COc1cc2c(cc1O)C(c1ccccc1Cl)CNCC2 (configuration not stated) | < 50% |
| COc1cc2c(cc1O)C(c1c(Cl)cccc1Cl)CN(C)CC2 (configuration not stated) | < 50% |
